target: Macrophage colony-stimulating factor 1 receptor (Homo sapiens); settings: at 1 µM;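 further: mean inhibition of FMS, from the GSK PKIS screening set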
OBSERVED_PROPERTY: inhibition (%)

COMPOUND	OBSERVED_PROPERTY	VALUE_OBSERVED
COc1cc(Nc2ncc(-c3ccccc3)o2)cc(OC)c1	inhibition	56.3
NS(=O)(=O)c1cccc(N/C=C2\C(=O)Nc3ccccc32)c1	inhibition	25.1
CC1(C)CC(n2cnc(-c3ccc(F)cc3)c2-c2ccnc(N)n2)CC(C)(C)N1	inhibition	0.54
Fc1cccc(COc2ccc(Nc3ncncc3C#Cc3ccccc3)cc2Cl)c1	inhibition	4.86
COc1cccc(Nc2nccc(-c3cnn4ncccc34)n2)c1	inhibition	90.9
COc1c(C(N)=O)cc(-c2ccc(Cl)cc2)cc1-c1ccc(S(N)(=O)=O)cc1	inhibition	4.74
CC1=C(C(=O)Nc2ccc3[nH]nc(C)c3c2)C(c2ccc(C(F)(F)F)cc2)CC(=O)N1 (stereo not given)	inhibition	2.04
CN(C)CCNC(=O)Nc1ccc(N(C)c2ccnc(Nc3ccc(CS(C)(=O)=O)cc3)n2)cc1	inhibition	67.3
c1cnn2ncc(-c3ccnc(NCCCN4CCOCC4)n3)c2c1	inhibition	5.17
COc1ccc(-c2nn3ncccc3c2-c2ccnc(Nc3ccc(F)c(F)c3)n2)cc1	inhibition	14.8
COc1ccccc1-c1cc(/C=C2\C(=O)Nc3ncc(Br)cc32)cc(Br)c1O	inhibition	7.16
CS(=O)(=O)Nc1ccc(-c2cc(-c3ccccc3)cc(C(N)=O)c2N)cc1	inhibition	9.05
Cc1c2ccc(N(C)c3ccnc(Nc4cccc(S(N)(=O)=O)c4)n3)cc2nn1C	inhibition	91.7
CN(c1ccc(NC(=O)NCCN2CCOCC2)cc1)c1ccnc(Nc2ccc(CS(C)(=O)=O)cc2)n1	inhibition	97
N#Cc1cccc(Nc2ncc(-c3ccccc3)o2)c1	inhibition	14.6
CS(=O)(=O)CCNCc1ccc(-c2ccc3ncnc(Nc4ccc(OCc5cccc(C(F)(F)F)c5)cc4)c3c2)o1	inhibition	9.05
COc1cccc(-n2ncc3c(N/N=C/c4ccc(C(=O)NCCN(C)C)cc4)ncnc32)c1	inhibition	37.8
CNC(=O)c1ncccc1Nc1nc(Nc2cc3c(cc2OC)CCCN3C(=O)CN(C)C)nc2[nH]ccc12	inhibition	3.9
CS(=O)(=O)CCNCc1ccoc1-c1ccc2ncnc(Nc3ccc(OCc4ccccc4)cc3)c2c1	inhibition	6.09
N#Cc1ccc2c(-c3ccnc(NC4CC4)n3)c(-c3ccc(F)cc3)nn2c1	inhibition	4.65

---

Biological target: Inhibitor of nuclear factor kappa-B kinase subunit beta (Homo sapiens) (UniProt O14920)
Sequence (whole entry): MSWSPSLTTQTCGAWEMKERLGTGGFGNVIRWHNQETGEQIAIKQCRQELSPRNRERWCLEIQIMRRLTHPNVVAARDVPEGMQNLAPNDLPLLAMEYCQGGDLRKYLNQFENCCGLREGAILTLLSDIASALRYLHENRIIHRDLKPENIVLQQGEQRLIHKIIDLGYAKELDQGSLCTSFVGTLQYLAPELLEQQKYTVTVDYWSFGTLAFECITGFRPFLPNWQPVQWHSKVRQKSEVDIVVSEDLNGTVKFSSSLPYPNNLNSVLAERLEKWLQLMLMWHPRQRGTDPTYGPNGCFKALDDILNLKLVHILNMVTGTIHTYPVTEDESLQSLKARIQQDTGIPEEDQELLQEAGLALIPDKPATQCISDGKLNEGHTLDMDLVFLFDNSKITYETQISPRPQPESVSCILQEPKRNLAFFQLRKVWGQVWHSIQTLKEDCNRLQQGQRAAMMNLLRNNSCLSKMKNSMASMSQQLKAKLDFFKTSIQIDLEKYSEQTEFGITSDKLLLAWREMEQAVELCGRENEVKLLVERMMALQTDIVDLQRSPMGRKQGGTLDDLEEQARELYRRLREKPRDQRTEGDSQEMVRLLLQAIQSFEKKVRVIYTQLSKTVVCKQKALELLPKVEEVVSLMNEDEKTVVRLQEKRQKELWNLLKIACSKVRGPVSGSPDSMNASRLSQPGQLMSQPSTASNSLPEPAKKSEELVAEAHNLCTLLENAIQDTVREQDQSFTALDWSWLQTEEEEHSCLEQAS
Settings: at 1 µM
Each entry below lists one item and its recorded inhibition value.

CHEMICAL_SMILES	inhibition (%)
c1ccc(-c2n[nH]cc2-c2ccnc(-c3ccc(OCCn4ccnc4)cc3)c2)nc1	-0.43
Fc1ccc(Nc2nccc(-c3c(-c4ccc(C(F)(F)F)cc4)nn4ncccc34)n2)cc1F	3.19
Cc1cc(O)cc(C)c1/C=C/c1cncc(C(N)=O)c1	1.13
N#Cc1cccc(Nc2ncc(-c3ccccc3)o2)c1	5.96
CCCNc1cccc(-n2ncc3c(N/N=C/c4ccncc4)ncnc32)c1	3.19
O=C1Nc2ccccc2/C1=C1\CCc2cc(O)ccc21	5.64
Cc1ccc(-c2cc3c(NC(=O)C4CC4)ncnc3o2)cc1	4.2
NS(=O)(=O)c1ccc(N/N=C2\C(=O)Nc3cccc(CCc4ccncc4)c32)cc1	-2.12
NC(=O)c1ccc2c(-c3ccnc(NCCCO)n3)c(-c3ccc(F)cc3)nn2c1	2.1
Cc1c2ccc(N(C)c3ccnc(Nc4cccc(S(N)(=O)=O)c4)n3)cc2nn1C	5.44
CNC(=O)c1cncc(/C=C/c2ccccc2C)c1	5.04
